This collection of values is drawn from ChEMBL document CHEMBL3046161.

- Test system: Klebsiella pneumoniae
- test.name: Antibacterial activity against Klebsiella pneumoniae MTCC 109 assessed as growth inhibition at 3.12 to 50 ug/mL after 24 hr by agar disk diffusion method
- Format: functional
Give measured inhibition zone (IZ) for each item. Keep answers brief.

For orientation, consider the following solved cases.
[
  {
    "compound": "Cc1ccc(NC(=O)CNc2ccc(-c3nc(N4CC(C)CC(C)C4)nc(N4CC(C)CC(C)C4)n3)cc2)cc1 (configuration not stated)",
    "inhibition zone (IZ)": "<10 mm"
  },
  {
    "compound": "CC1CC(C)CN(c2nc(-c3ccc(NCC(=O)Nc4nc5ccc([N+](=O)[O-])cc5s4)cc3)nc(N3CC(C)CC(C)C3)n2)C1 (configuration not stated)",
    "inhibition zone (IZ)": "18 mm"
  },
  {
    "compound": "COc1ccc2nc(NC(=O)CNc3ccc(-c4nc(N5CC(C)CC(C)C5)nc(N5CC(C)CC(C)C5)n4)cc3)sc2c1 (configuration not stated)",
    "inhibition zone (IZ)": "23 mm"
  },
  {
    "compound": "CC1CC(C)CN(c2nc(-c3ccc(NCC(=O)Nc4ccc(F)cc4)cc3)nc(N3CC(C)CC(C)C3)n2)C1 (configuration not stated)",
    "inhibition zone (IZ)": "21 mm"
  },
  {
    "compound": "CC1CC(C)CN(c2nc(-c3ccc(NCC(=O)Nc4ccc([N+](=O)[O-])cc4)cc3)nc(N3CC(C)CC(C)C3)n2)C1 (configuration not stated)",
    "inhibition zone (IZ)": "12 mm"
  }
]

For every listed record, write down its inhibition zone (IZ).
1. CC1CC(C)CN(c2nc(-c3ccc(NCC(=O)Nc4nc5ccccc5s4)cc3)nc(N3CC(C)CC(C)C3)n2)C1 (configuration not stated)
2. CC(=O)Nc1ccc2nc(NC(=O)CNc3ccc(-c4nc(N5CC(C)CC(C)C5)nc(N5CC(C)CC(C)C5)n4)cc3)sc2c1 (configuration not stated)

1. <10 mm
2. 21 mm
